Tested on: Escherichia coli TOP10
Experiment: shrunken log2 fold change of peptide-encoding DNA abundance (4.5 h post-induction vs induction); higher = less antimicrobial activity (less host growth inhibition)
Details: time post-induction: 4.5 h; library: site-saturation at positions 5, 18, 19, 20
OBSERVED_PROPERTY: shrunken log2 fold change
Response field accepts a number only; no unit should be typed.

Examples with answers:
[[record]]
sequence_input = "RRIRMRPPRLPRPRPRPHTCPRP"
quantitative_result = -0.0858

[[record]]
sequence_input = "RRIRIRPPRLPRPRPRPVPTPRP"
quantitative_result = 0.0576

[[record]]
sequence_input = "RRIRCRPPRLPRPRPRPMPAPRP"
quantitative_result = 0.849

[[record]]
sequence_input = "RRIRMRPPRLPRPRPRPVRVPRP"
quantitative_result = 1.74

[[record]]
sequence_input = "RRIRDRPPRLPRPRPRPGCQPRP"
quantitative_result = 0.341


So the reported shrunken log2 fold change for RRIRNRPPRLPRPRPRPAVDPRP , on Escherichia coli TOP10, turned out to be 0.0455

So the reported shrunken log2 fold change for RRIRERPPRLPRPRPRPNVRPRP , on Escherichia coli TOP10, turned out to be 0.0403

So the reported shrunken log2 fold change for RRIRWRPPRLPRPRPRPSEYPRP , on Escherichia coli TOP10, turned out to be -0.221

So the reported shrunken log2 fold change for RRIRWRPPRLPRPRPRPKMTPRP , on Escherichia coli TOP10, turned out to be 0.175

So the reported shrunken log2 fold change for RRIRKRPPRLPRPRPRPMDYPRP , on Escherichia coli TOP10, turned out to be 0.0283

So the reported shrunken log2 fold change for RRIRKRPPRLPRPRPRPGDMPRP , on Escherichia coli TOP10, turned out to be 0.277

So the reported shrunken log2 fold change for RRIRFRPPRLPRPRPRPFIAPRP , on Escherichia coli TOP10, turned out to be -0.489

So the reported shrunken log2 fold change for RRIRPRPPRLPRPRPRPIYIPRP , on Escherichia coli TOP10, turned out to be -0.36

So the reported shrunken log2 fold change for RRIRQRPPRLPRPRPRPQENPRP , on Escherichia coli TOP10, turned out to be -0.0517

###

Tested on: Escherichia coli TOP10;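 note: peptides expressed intracellularly from a pBAD plasmid library in pooled LB shake-flask culture, induced with 0.3% L-arabinose, DNA abundance read by NGS, three biological replicates, DESeq2 with apeglm shrinkage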
Assay: shrunken log2 fold change of peptide-encoding DNA abundance (4.5 h post-induction vs induction); higher = less antimicrobial activity (less host growth inhibition)
Conditions: time post-induction: 4.5 h; library: site-saturation at positions 5, 18, 19, 20
Entry flag: Condition met if shrunken log2 fold change reaches 0.2; Condition not met if it does not.

Look over these answered cases.
[[record]]
sequence_input = "RRIRKRPPRLPRPRPRPQRHPRP"
target_or_system = "Escherichia coli TOP10"
label = "Condition met"

[[record]]
sequence_input = "RRIRLRPPRLPRPRPRPNYQPRP"
target_or_system = "Escherichia coli TOP10"
label = "Condition not met"

[[record]]
sequence_input = "RRIRMRPPRLPRPRPRPKSPPRP"
target_or_system = "Escherichia coli TOP10"
label = "Condition met"

[[record]]
sequence_input = "RRIRIRPPRLPRPRPRPSMSPRP"
target_or_system = "Escherichia coli TOP10"
label = "Condition not met"

[[record]]
sequence_input = "RRIRCRPPRLPRPRPRPAVGPRP"
target_or_system = "Escherichia coli TOP10"
label = "Condition not met"

[[record]]
sequence_input = "RRIRWRPPRLPRPRPRPWMPPRP"
target_or_system = "Escherichia coli TOP10"
label = "Condition not met"


Q: Is the recorded value of shrunken log2 fold change equal to or greater than 0.2 for this sequence? RRIRMRPPRLPRPRPRPCMTPRP
Ans: Condition met

Q: Is the recorded value of shrunken log2 fold change equal to or greater than 0.2 for this sequence? RRIRDRPPRLPRPRPRPIWLPRP
Ans: Condition not met

Q: Is the recorded value of shrunken log2 fold change equal to or greater than 0.2 for this sequence? RRIRDRPPRLPRPRPRPAIMPRP
Ans: Condition met

Q: Is the recorded value of shrunken log2 fold change equal to or greater than 0.2 for this sequence? RRIRRRPPRLPRPRPRPCPYPRP
Ans: Condition not met

Q: Is the recorded value of shrunken log2 fold change equal to or greater than 0.2 for this sequence? RRIRLRPPRLPRPRPRPCVHPRP
Ans: Condition not met

Q: Is the recorded value of shrunken log2 fold change equal to or greater than 0.2 for this sequence? RRIRFRPPRLPRPRPRPNHYPRP
Ans: Condition not met

Q: Is the recorded value of shrunken log2 fold change equal to or greater than 0.2 for this sequence? RRIRCRPPRLPRPRPRPLQYPRP
Ans: Condition not met

Q: Is the recorded value of shrunken log2 fold change equal to or greater than 0.2 for this sequence? RRIRYRPPRLPRPRPRPPNTPRP
Ans: Condition not met

Q: Is the recorded value of shrunken log2 fold change equal to or greater than 0.2 for this sequence? RRIRMRPPRLPRPRPRPPNRPRP
Ans: Condition met
